# protocol_details: inhibitors of CD8+ T cell-vesicle binding, pilot screen, LFA-1/ICAM-1 modulator project, MLPCN validation set, flow cytometry (AID 2523)
# test_context: 2C mouse CD8+ T cells, at 7 µM, stronger effect = lower value; measured here: CD8+/vesicle+ event percentage
measured_property: double positive events (%)
Give the number; % is assumed, so skip it.

Some solved entries appear below for comparison.
compound	double positive events / %
COc1ccc(C=NCC2COc3ccccc3O2)cc1OC (centres undefined)	62.8
C[C@]12CC[C@@H]3c4cc(O)c(O)cc4CC[C@H]3[C@@H]1CC[C@@H]2O	65.9
C[C@]12CCC(=O)C[C@@H]1CC[C@@H]1[C@@H]2CC[C@]2(C)C=CC[C@@H]12	51.4

Entry `Oc1ccc(Cl)cc1Cc1cc(Cl)ccc1O` has what double positive events?
63.4

Entry `CCN(Cc1ccncc1)Cc1nc(Cc2ccccc2Cl)no1` has what double positive events?
53.4

Entry `CCN(Cc1cnn(C)c1)Cc1nc(C(c2ccccc2)c2ccccc2)no1` has what double positive events?
61.8

Entry `COc1ccc(C(=O)OCc2cc3cccc(C)c3[nH]c2=O)cc1` has what double positive events?
49.3

Entry `O=c1cc(-c2ccc3c(c2)OCCO3)oc2ccc(Cl)cc12` has what double positive events?
59

Entry `CCOC(=O)c1cnc2ccc(C(=O)OC)cc2c1Nc1ccc2c(c1)OCCO2` has what double positive events?
63.9

Entry `C=C(C)COc1ccc(-c2n[nH]c(C)c2-c2ccc(OC)cc2)c(O)c1` has what double positive events?
58.9

Entry `COc1ccc2[nH]c3c(c2c1)CCn1c-3nc2ccccc2c1=O` has what double positive events?
48.2

====

# protocol_details: AGP1-GFP expression modulators, hit retest, confirmation, cell-based, flow cytometry, S. cerevisiae, cherry picks (AID 2273);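 note: median GFP channel fluorescence over the whole cell population gate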
# test_context: S. cerevisiae AGP1-GFP strain, 3 h, at 10 µM
measured_property: GFP response, % of DMSO (%)
Give the number; % is assumed, so skip it.

Entry `Cc1ccc(S(=O)(=O)Nc2cc(Cl)c(O)c3ncccc23)cc1` has what GFP response, % of DMSO?
91.2

Entry `CCN(CC)c1ccc(/C=C/c2cccc[n+]2C)c(OC)c1` has what GFP response, % of DMSO?
104

Entry `COc1ccc(N/N=C(\C#N)C(N)=O)cc1` has what GFP response, % of DMSO?
125

Entry `N/C(=N\OC(=O)c1cc(Br)ccc1Cl)c1ccccn1` has what GFP response, % of DMSO?
93.2

Entry `Cc1cccc(N2C(=O)c3cccc4c(N(C)CCO)ccc(c34)C2=O)c1` has what GFP response, % of DMSO?
101

Entry `O=C(Nc1cccc(F)c1)c1ccccc1` has what GFP response, % of DMSO?
95.9

Entry `CC1=C(C)/C(=N\OS(=O)(=O)c2ccccc2)C=CC1=O` has what GFP response, % of DMSO?
93.4

Entry `COc1ccc(Cc2nnc(NC(=O)c3ccccc3F)s2)cc1` has what GFP response, % of DMSO?
98.3

Entry `C/C(=N\NC(=O)c1c(Br)c(C)nn1C)c1cccc(NC(=O)C2CCC2)c1` has what GFP response, % of DMSO?
106

Entry `O=C1c2cccc3cccc(c23)C(=O)N1c1ccncc1` has what GFP response, % of DMSO?
103

Entry `CC(C)Nc1nc(-c2ccccc2)nnc1-c1ccccc1` has what GFP response, % of DMSO?
96.1

Entry `Cc1c(NC2=C(Cl)C(=O)N(c3ccccc3Cl)C2=O)c(=O)n(-c2ccccc2)n1C` has what GFP response, % of DMSO?
102

====

# protocol_details: RPL19A-GFP modulators, yeast TOR pathway, confirmation, cell-based, S. cerevisiae, flow cytometry, cherry picks, mother/daughter gates (AID 2270)
# test_context: S. cerevisiae RPL19A-GFP strain, 3 h, at 10 µM, stronger effect = lower value, 100 = same GFP as DMSO wells
measured_property: GFP response vs DMSO (%)
Give the number; % is assumed, so skip it.

Some solved entries appear below for comparison.
compound	reading
CCC(Sc1nc(=O)cc(N)n1-c1ccccc1)C(=O)Nc1cc(C)on1 (stereo not drawn)	98.2
C/C(=N\NC(=O)Cc1ccc([N+](=O)[O-])cc1)c1cccnc1	97.8

Entry `Cc1nonc1C(=O)N/N=C/c1ccc([N+](=O)[O-])o1` has what GFP response vs DMSO?
100

====

# protocol_details: LAP4-GFP expression modulators in yeast, confirmation, cell-based, cherry picks, flow cytometry, mother/daughter gates (AID 2271);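 note: ratio of sample to DMSO plate mean so 100% equals DMSO level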
# test_context: S. cerevisiae LAP4-GFP strain, 3 h, measured here: daughter cell gate response, at 10 µM, stronger effect = higher value, 100 means same as DMSO control
measured_property: GFP response relative to DMSO (%)
Give the number; % is assumed, so skip it.

smiles_structure	result_unit	GFP response relative to DMSO
CCc1nnc(NC(=O)c2nc(S(=O)(=O)Cc3ccc(C)cc3)ncc2Cl)s1	%	105

Entry `CCOC(=O)C(=Cc1ccc(F)cc1)C(=O)OCC` has what GFP response relative to DMSO?
102

Entry `O=C1c2ccsc2SCCN1Cc1ccc(F)cc1` has what GFP response relative to DMSO?
110

Entry `CC1=C(C)/C(=N\OS(=O)(=O)c2ccccc2)C=CC1=O` has what GFP response relative to DMSO?
196

Entry `Cc1ccc(NC(=O)c2ccccc2)cc1` has what GFP response relative to DMSO?
100

Entry `O=C(COC(=O)/C=C/c1cccs1)Nc1nc(-c2cccc(Br)c2)cs1` has what GFP response relative to DMSO?
94.1

Entry `O=C1c2ccsc2SCCN1Cc1ccccc1Cl` has what GFP response relative to DMSO?
102

Entry `Cc1noc2ncnc(Sc3c(Cl)cccc3Cl)c12` has what GFP response relative to DMSO?
94.4

Entry `COc1ccc(-c2cc(=O)n(-c3nc4ccccc4[nH]3)[nH]2)cc1` has what GFP response relative to DMSO?
119

====

# protocol_details: RPL19A-GFP modulators, yeast TOR pathway, confirmation, cell-based, S. cerevisiae, flow cytometry, cherry picks, mother/daughter gates (AID 2270)
# test_context: S. cerevisiae RPL19A-GFP strain, 3 h, at 10 µM, stronger effect = lower value, 100 = same GFP as DMSO wells
# maps each entry to its GFP response vs DMSO
Give the number; % is assumed, so skip it.

Some solved entries appear below for comparison.
molecule	GFP response vs DMSO, %
CC(C)c1nnc(NC(=O)c2nc(S(=O)(=O)Cc3ccccc3F)ncc2Cl)s1	98.4
Cc1ccc(C(=O)O)cc1N1C(=O)c2cccc3cc(Br)cc(c23)C1=O	101
CCC(=O)Nc1ccc(NC(=O)c2cc3ccccc3o2)c(OC)c1	100
NC(=O)COc1ccc(C(=O)/C=C2/C(=O)Nc3ccccc32)cc1	94
Cc1cccn2c(=O)c(/C=C(\C#N)C(=O)NCc3ccco3)c(N3CCC(C(N)=O)CC3)nc12	89.5
CCc1nnc(NC(=O)c2nc(S(=O)(=O)Cc3ccccc3)ncc2Cl)s1	94.9

Entry `O=C(Cn1c(=O)oc2cc(S(=O)(=O)N3CCCC3)ccc21)Nc1ccccc1Br` has what GFP response vs DMSO?
93.7

Entry CCc1nnc(NC(=O)c2ccc(S(=O)(=O)N3CCCC(C)C3)cc2)o1 (stereo unspecified) has what GFP response vs DMSO?
101

Entry `O=S(=O)(/N=C(/Nc1ccc(F)cc1F)c1ccc(Cl)cc1)c1ccccc1` has what GFP response vs DMSO?
101

Entry Cc1ccc(S(=O)(=O)N2CCCC2C(=O)OCc2ccco2)cc1 (stereo unspecified) has what GFP response vs DMSO?
103

Entry `Nc1ccc(C(=O)N/N=C/c2ccccc2)cc1` has what GFP response vs DMSO?
105

====

# protocol_details: inhibitors of fungal efflux pumps CDR1, CDR2, MDR1, pilot screen, validation compound set, multiplex, phenotypic (AID 588506);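 note: Nile Red retained in cells so higher fluorescence means more efflux inhibition; 0 = negative control wells and 1 = enniatin B 25 µM full block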
# test_context: S. cerevisiae pump-expressing triplex, Nile Red efflux flow cytometry; at 10 µM; stronger effect = higher value; the pumps come from Candida albicans
measured_property: efflux inhibition (fraction of control)
The answer should be a number; do not append a unit.

Some solved entries appear below for comparison.
molecule	reading
CC(=O)Oc1ccc(C2OC(=O)c3ccccc3N2C(C)=O)cc1 (stereo not drawn)	0.03
O=C(CC(C(=O)O)c1c[nH]c2ccccc12)c1ccccc1 (stereo not drawn)	0.03

Let us examine a further case.
Entry `CN1CCC(OC(c2ccccc2)c2ccccc2)CC1` has what efflux inhibition (fraction of control)?
0.03

====

# protocol_details: LAP4-GFP expression modulators in yeast, confirmation, cell-based, cherry picks, flow cytometry, mother/daughter gates (AID 2271);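 note: ratio of sample to DMSO plate mean so 100% equals DMSO level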
# test_context: S. cerevisiae LAP4-GFP strain, 3 h, at 10 µM, stronger effect = higher value, 100 means same as DMSO control
Active and inactive are the calls of the source.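 How the source made its calls: active means GFP response above 150% of the DMSO control; inconclusive means fewer than 70 events counted in any yeast strain; inactive means the rest.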
# maps each entry to its GFP response relative to DMSO

molecule	GFP response relative to DMSO
COc1ccc(N2CCN(C(=O)c3ccc(C)cc3Cl)CC2)cc1	97.4% (inactive)
Cc1ccccc1NC(=O)COC(=O)c1cc(=O)c2ccccc2o1	98.7% (inactive)

Entry `CCOC(=O)c1cnn(-c2cc(C)nc3c(-c4ccccc4)cnn23)c1N` has what GFP response relative to DMSO?
92.9% (inactive)
